// reported half-life at 100 µM per item
Target: cathepsin B (Bos taurus, UniProt P07688)
Construct: bovine spleen cathepsin B (Sigma product code C-6286) was prepared by dissolving lyophilized solid; purchased Sigma C-6286; host or cells: bovine spleen (tissue-derived)
Assay: Cathepsin B mediated cleavage of single amino acid linkers (RP-HPLC, A340)
Format: biochemical, bovine
Conditions: bovine, activated bovine spleen cathepsin B (isolated enzyme), cysteine modified compound, pH 5.0, 37° C., read-out: Approx. substrate half-life (converted)

Compound	Measured target	Observed result
CN1CCN(C(=O)Oc2cc3c(c4ccccc24)[C@H](CCl)CN3C(=O)c2cc3cc(NC(=O)c4ccc(NC(=O)[C@H](CCCNC(N)=O)NC(=O)CCCCCN5C(=O)C=CC5=O)cc4)ccc3[nH]2)CC1 [Compound A]	cathepsin B (Bos taurus, UniProt P07688)	~24 h

Now look at this one.
query: Answer with half-life at 100 µM of CN1CCN(C(=O)Oc2cc3c(c4ccccc24)[C@H](CCl)CN3C(=O)c2cc3cc(NC(=O)c4ccc(NC(=O)[C@H](CCCCN)NC(=O)CCCCCN5C(=O)C=CC5=O)cc4)ccc3[nH]2)CC1 [Compound E] measured for cathepsin B (Bos taurus, UniProt P07688).
result: ~4 h
